System: Aβ42
Assay: Screening for γ-secretase-modulating activity, Method 1: Aβ42 sandwich ELISA in supernatant of SKNBE2 cells carrying APP 695 wild type (Tables 12a, 12b)
Type: cell-based
Conditions: Homo sapiens; Table 12b; Method 1, SKNBE2 cells carrying APP 695 wild type, cell supernatant ELISA; averaged IC50 values, percentage of control vs log concentration
Protocol: Screening was carried out using SKNBE2 cells carrying the APP 695—wild type, grown in Dulbecco's Modified Eagle's Medium/Nutrient mixture F-12 (DMEM/NUT-mix F-12) (HAM) provided by Gibco (cat no. 31330-38) containing 5% Serum/Fe supplemented with 1% non-essential amino acids. […] To quantify the amount of Aβ42 in the cell supernatant, commercially available Enzyme-Linked-Immunosorbent-Assay (ELISA) kits were used (Innotest® β-Amyloid(1-42), Innogenetics N.V., Ghent, Belgium). […]
// reported IC50 for each item listed
Could you give me the number in nM? Just the number is fine.

smiles record	IC50 / nM
COc1cc(Nc2cccn3c(-c4ccc(F)cc4)cnc23)ccc1-n1cnc(C)c1	562

[ask] What IC50 appears in the records for this compound with Aβ42? COc1cc(Nc2cccn3cc(-c4ccc(Cl)cc4)nc23)ccc1-n1cnc(C)c1
[reply] 71

[ask] What IC50 appears in the records for this compound with Aβ42? COc1cccc(-c2nc3c(Nc4ccc(-n5cncn5)c(OC)c4)cccn3c2C)c1
[reply] 36

[ask] What IC50 appears in the records for this compound with Aβ42? COc1cc(Nc2cccn3cc(-c4ccccn4)nc23)ccc1-n1cnc(C)c1
[reply] 363

[ask] What IC50 appears in the records for this compound with Aβ42? COc1cc(Nc2cccn3cc(C)nc23)ccc1-n1cnc(C)c1
[reply] 251

[ask] What IC50 appears in the records for this compound with Aβ42? COc1cccc(-c2nc3c(Nc4ccc(-n5cnc(C)c5)cc4)cccn3c2C)c1
[reply] 17

[ask] What IC50 appears in the records for this compound with Aβ42? COc1cc(Nc2cccn3c(C)c(-c4ccc(F)cc4F)nc23)ccc1-n1cnc(C)c1
[reply] 11

[ask] What IC50 appears in the records for this compound with Aβ42? COc1cc(Nc2cccn3cc(-c4ccc(F)cc4)nc23)ccc1-n1cc(C)nc1C
[reply] 871

[ask] What IC50 appears in the records for this compound with Aβ42? COc1cc(Nc2cccn3cc(CC4CCOCC4)nc23)ccc1-n1cnc(C)n1
[reply] 1380

The measurements presented in this section are drawn from patent US8546440B2.
